System: MOLT-4 leukemia
Assay: NCI-60 one-dose screen, 48 h
Details: 10 µM unless noted
The panel holds about 83,000 compounds, 20% with a hit somewhere; the sample as a whole holds those more often. The source made the active and inactive calls. The calls were made as follows: active = growth percent below 10; inactive = the rest.
The categories you may choose from are Yes = active, No = inactive

See these solved cases before continuing.
| compound | categoryLabel |
| --- | --- |
| COc1ccc(S(=O)(=O)Nc2c(/C=C\c3cc(OC)c(OC)c(OC)c3)ccc(OC)c2O)cc1OC | No |
| COc1ccc(C(=O)c2sc3nc4c(cc3c2N)N2CCC4CC2)cc1OC | No |
| CCOC(=O)[C@@H](C)C[C@H](Cc1ccccc1)NC(=O)c1nc([C@@H](C[C@H](C(C)C)N(C)C(=O)[C@@H](NC(=O)[C@H]2CCCCN2C)C(C)C)OC(C)=O)sc1CCOCc1ccccc1 | Yes |
| Fc1ccc2c(c1)c(-c1nc(-c3c[nH]c4ncccc34)cs1)cn2CCN1CCOCC1 | No |
| CO[C@H](C(=O)O)[C@@H]1Cc2cc3cc(OC4CC(OC5CC(O)C(O)C(C)O5)C(O)C(C)O4)c(C)c(O)c3c(O)c2C(=O)[C@H]1OC1CC(OC2CC(OC3CC(C)(O)C(O)C(C)O3)C(O)C(C)O2)C(O)C(C)O1 (stereo partly drawn) | Yes |

(Q) Called result for CCCCC1(CCC)C(=O)NC(=S)NC1=O
(A) No

(Q) Try this compound too: NC(=O)C(Br)c1ccccc1 (stereo not drawn)
(A) No

(Q) Try this compound too: CC(C)=CCc1c(O)c(C(=O)CC(C)C)c(O)c2c(-c3ccccc3)cc(=O)oc12
(A) No

* * *

System: BT-549 breast
Assay: NCI-60 one-dose screen, 48 h
Conditions: 10 µM unless noted
The panel holds about 83,000 compounds, 20% with a hit somewhere; the sample as a whole holds those more often. Calls of active or inactive are those of the source. How the source made its calls: active means growth percent below 10; inactive means the rest.
The categories you may choose from are yes (active), no (inactive)

| molecule | categoryLabel |
| --- | --- |
| CCC1(C)CC(CCNCc2ccccc2O)(c2ccc(C)cc2)CCO1 (stereo unspecified) | no |
| NC(=O)c1c(Br)n(C2OC(CO)C(O)C2O)c2ncnc(N)c12 (stereo unspecified) | yes |
| Nc1ccc(OCCNS(=O)(=O)c2cccc(S(=O)(=O)F)c2)c(Cl)c1 | no |
| CC(C)[C@]12O[C@H]1[C@@H]1O[C@]13[C@]1(O[C@H]1C[C@H]1c4c(C(=O)c5ccccc5)oc(OC(=O)c5ccccc5)c4CC[C@@]13C)[C@@H]2O | yes |
| Clc1cccc(NCOOC2(OOCNc3cccc(Cl)c3)CCCCC2)c1 | no |
| C[C@]12CC[C@H]3[C@@H](CC4SC(N)=NC45C/C(=N/NC(N)=O)CC[C@]35C)[C@@H]1CCC2=O (stereo partly specified) | no |

(Q) Called result for Cc1cc(N(CCCl)CCCl)ccc1C=Nc1ccc(-c2csc(Cc3ccccc3)n2)cc1
(A) no

(Q) Try this molecule too: C#Cc1ccc2c(c1)C(c1ccccc1F)=NCC(=O)N2C
(A) no

(Q) Try this molecule too: Cc1c2cc(Cl)c3ccccc3c2c[n+]2ccccc12
(A) yes

(Q) Try this molecule too: Nc1nnnc2nc[nH]c12
(A) no

(Q) Try this molecule too: O=[N+]([O-])c1ccc(OP(=O)(CCl)N(CCCl)CCCl)cc1 (stereo unspecified)
(A) no
